Reference source for all entries: PubChem BioAssay (NCATS)

Test: AP1 Signaling Pathway (AID 357);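 also: ME-180 reporter cells stimulated with EGF at its EC50 level; % is scaled to controls: 0 for no effect and ±100 for the full control effect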
Settings: ME-180 (cervical carcinoma) AP-1-bla reporter, EGF-induced, beta-lactamase ratio, 5 h; at 7.69 µM (top of the series) unless noted
Inconclusive results are not listed. The source made the active and inactive calls. Calls follow the shape of the dose curve; as a rule, active = well fitted curve in either direction with a large enough effect (not every such curve was filed as active); inconclusive = small, poorly fitted or top-dose-only effect, or another doubt; inactive = flat fitted curve, though single readings scatter.
MEASUREMENT TYPE: activity change, negative = inhibition

>  <STRUCTURE SMILES>
COc1c(O)cc2c(c1O)[C@@H]1O[C@@H](CO)[C@@H](O)[C@@H](O)[C@@H]1OC2=O

>  <MEASURED RESULT>
9.85% [at 17.2 µM] (inactive)

$$$$
>  <STRUCTURE SMILES>
COc1ccccc1CN1CC[C@@]2(CCCN(S(=O)(=O)c3ccccc3)C2)C1

>  <MEASURED RESULT>
7.37% (inactive)

$$$$
>  <STRUCTURE SMILES>
CN1CCN(c2ncncc2-c2cccnc2)CC1

>  <MEASURED RESULT>
2.82% (inactive)

$$$$
>  <STRUCTURE SMILES>
c1nc(NCCN2CCOCC2)c2cc(-c3ccc4c(c3)OCO4)ccc2n1

>  <MEASURED RESULT>
-13.5% (inactive)

$$$$
>  <STRUCTURE SMILES>
CC(=O)N1CCC2(CC1)CCN(c1ccncc1)CC2

>  <MEASURED RESULT>
-3.43% (inactive)

$$$$
>  <STRUCTURE SMILES>
COc1cccc(-c2cncnc2NCc2cccs2)c1

>  <MEASURED RESULT>
-25% (inactive)

$$$$
>  <STRUCTURE SMILES>
CN(C)c1ncc2nc(-c3cccs3)c(=O)n(C3CC3)c2n1

>  <MEASURED RESULT>
6.37% (inactive)

$$$$
>  <STRUCTURE SMILES>
FC(F)(F)c1ccccc1-c1nccc(-n2ccnc2)n1

>  <MEASURED RESULT>
-7.77% (inactive)

$$$$
>  <STRUCTURE SMILES>
Cn1cc(-c2nc3cnc(N4CCOCC4)nc3n(CCC#N)c2=O)c2ccccc21

>  <MEASURED RESULT>
-11.7% (inactive)

$$$$
>  <STRUCTURE SMILES>
Cc1cccc(CNc2ncnc3ccc(-c4c(C)noc4C)cc23)c1

>  <MEASURED RESULT>
14.8% (inactive)

$$$$
>  <STRUCTURE SMILES>
O=C(c1csnn1)N1CCC2(CC1)CCN(c1ccccn1)CC2

>  <MEASURED RESULT>
15.4% (inactive)

$$$$
>  <STRUCTURE SMILES>
COc1ccc2[nH]cc(CCNc3cc(-c4c(C)noc4C)ncn3)c2c1

>  <MEASURED RESULT>
8.05% (inactive)

$$$$
>  <STRUCTURE SMILES>
c1ccc(-c2cccc(N3CCCC4(CCNCC4)C3)c2)cc1

>  <MEASURED RESULT>
11.2% (inactive)

$$$$
>  <STRUCTURE SMILES>
COc1ccccc1CCn1c(=O)c(C)nc2cncnc21

>  <MEASURED RESULT>
-13.2% (inactive)

$$$$
>  <STRUCTURE SMILES>
Cc1nc2cncnc2n(Cc2ccccc2Cl)c1=O

>  <MEASURED RESULT>
-18% (inactive)

$$$$
>  <STRUCTURE SMILES>
COc1ncc2nc(-c3cn(C)c4ccccc34)c(=O)n(CCC#N)c2n1

>  <MEASURED RESULT>
-17.8% (inactive)

$$$$
>  <STRUCTURE SMILES>
CC(=O)N1CCC2(CCN(Cc3ccccc3)CC2)CC1

>  <MEASURED RESULT>
-7.18% (inactive)

$$$$
>  <STRUCTURE SMILES>
COc1ccccc1CNc1cc(-c2ccoc2)ncn1

>  <MEASURED RESULT>
-15.7% (inactive)

$$$$
>  <STRUCTURE SMILES>
COc1ccccc1CNc1ncnc2ccc(-c3ccccc3OC)cc12

>  <MEASURED RESULT>
-19.9% (inactive)

$$$$
>  <STRUCTURE SMILES>
COc1ccc(-c2nc3cnc(OC)nc3n(CCC#N)c2=O)cc1

>  <MEASURED RESULT>
-7.37% (inactive)

$$$$
>  <STRUCTURE SMILES>
COc1ccc(NC(=O)N2CC3(CCN(C(=O)c4ccncc4)CC3)C2)cc1

>  <MEASURED RESULT>
0.578% (inactive)

$$$$
>  <STRUCTURE SMILES>
O=C(c1cccc(F)c1)N1CCC2(CCN(Cc3ccccc3)CC2)CC1

>  <MEASURED RESULT>
-3.73% (inactive)

$$$$
>  <STRUCTURE SMILES>
CC(C)CN1CCC2(CC1)CCN(C(=O)c1ccncc1)CC2

>  <MEASURED RESULT>
-3.14% (inactive)

$$$$
>  <STRUCTURE SMILES>
CC1(C)O[C@@H]2C[C@H]3[C@H]4C[C@H](F)C5=CC(=O)C=C[C@@]5(C)[C@@H]4[C@H](O)C[C@]3(C)[C@]2(C(=O)CO)O1

>  <MEASURED RESULT>
21.4% [at 17.2 µM] (inactive)

$$$$
>  <STRUCTURE SMILES>
CN(Cc1ccco1)c1cc(-c2cccnc2)ncn1

>  <MEASURED RESULT>
11.4% (inactive)

$$$$
>  <STRUCTURE SMILES>
Cn1cccc1C(=O)N1CCC[C@@]2(CCN(Cc3nccs3)C2)C1

>  <MEASURED RESULT>
-4.63% (inactive)

$$$$
>  <STRUCTURE SMILES>
FC(F)(F)c1ccccc1-c1cncnc1-n1ccnc1

>  <MEASURED RESULT>
-6.84% (inactive)

$$$$
>  <STRUCTURE SMILES>
CNc1ccnc(-c2ccccc2C)n1

>  <MEASURED RESULT>
0.123% (inactive)

$$$$
>  <STRUCTURE SMILES>
CC(=O)NCCNc1ncncc1-c1ccccc1CN(C)C

>  <MEASURED RESULT>
1.84% (inactive)

$$$$
>  <STRUCTURE SMILES>
Cc1cnc(CNc2ncnc3ccc(-c4cccc(NS(C)(=O)=O)c4)cc23)cn1

>  <MEASURED RESULT>
-5.16% (inactive)

$$$$
>  <STRUCTURE SMILES>
O=S(=O)(c1ccccc1)N1CCC2(CCN(c3ccc(-c4ccccc4)cc3)CC2)CC1

>  <MEASURED RESULT>
1.76% (inactive)

$$$$
>  <STRUCTURE SMILES>
Cc1cccc(CNc2ccnc(-c3ccccc3C(F)(F)F)n2)c1

>  <MEASURED RESULT>
-10.1% (inactive)

$$$$
>  <STRUCTURE SMILES>
O=C(c1cc(C(F)(F)F)cc(C(F)(F)F)c1)N1CCC[C@@]2(CCN(c3ccncc3)C2)C1

>  <MEASURED RESULT>
6.68% (inactive)

$$$$
>  <STRUCTURE SMILES>
O=C(c1cccc(F)c1)N1CCC[C@@]2(CCN(C(c3ccccc3)c3ccccc3)C2)C1

>  <MEASURED RESULT>
28.8% (inactive)

$$$$
>  <STRUCTURE SMILES>
CC(C)NC(=O)N1CC[C@@]2(CCCN(C(=O)c3ccncc3)C2)C1

>  <MEASURED RESULT>
-20.1% (inactive)

$$$$
